Every entry's value here was drawn from ChEMBL document CHEMBL3864175.

- experiment: Fraction unbound in rat plasma at 5 uM measured after 45 mins by LC-MS/MS analysis
- Format: ADME, cell-free
Assign fraction unbound at 0.75 h, 5 µM to each entry below.
One number for each entry.

[
  {
    "smiles-string": "COc1cc(C(F)(F)F)ccc1-c1nccc2cc(S(=O)(=O)Nc3nccs3)ccc12",
    "fraction unbound at 0.75 h, 5 µM": 0.012
  },
  {
    "smiles-string": "COc1cc(C(F)(F)F)ccc1-c1cnnc2cc(S(=O)(=O)Nc3nccs3)ccc12",
    "fraction unbound at 0.75 h, 5 µM": 0.014
  },
  {
    "smiles-string": "O=S(=O)(Nc1ncns1)c1ccc2c(-c3ccc(C(F)(F)F)cc3O)cccc2c1",
    "fraction unbound at 0.75 h, 5 µM": 0.001
  }
]

Please report fraction unbound at 0.75 h, 5 µM for every entry that follows.
1. COc1cc(C(F)(F)F)ccc1-c1cccc2cc(S(=O)(=O)Nc3ccncn3)ccc12
2. O=S(=O)(Nc1ncns1)c1ccc2c(-c3ccc(C(F)(F)F)cc3C3=CCNCC3)cccc2c1

Data returned:
0.003
0.1

###

- experiment: Drug excretion in bile duct cannulated Sprague-Dawley rat urine assessed as parent compound at 1 mg/kg, iv administered through catheter measured up to 24 hrs by LC-MS/MS analysis
- Format: ADME, organism-based
- experimental-parameters: read-out: Drug excretion
quantity-name: dose excreted at 24 h (%)
Answers are plain numbers, in %.

Data request: Consider the molecule shown here: "COc1cc(C(F)(F)F)ccc1-c1ncnc2cc(S(=O)(=O)Nc3nccs3)ccc12" What is its recorded dose excreted at 24 h?
Data returned: 0.02

###

- test-target: Sodium channel protein type 10 subunit alpha (Homo sapiens, UniProt Q9Y5Y9)
- Sequence (Q9Y5Y9 whole entry): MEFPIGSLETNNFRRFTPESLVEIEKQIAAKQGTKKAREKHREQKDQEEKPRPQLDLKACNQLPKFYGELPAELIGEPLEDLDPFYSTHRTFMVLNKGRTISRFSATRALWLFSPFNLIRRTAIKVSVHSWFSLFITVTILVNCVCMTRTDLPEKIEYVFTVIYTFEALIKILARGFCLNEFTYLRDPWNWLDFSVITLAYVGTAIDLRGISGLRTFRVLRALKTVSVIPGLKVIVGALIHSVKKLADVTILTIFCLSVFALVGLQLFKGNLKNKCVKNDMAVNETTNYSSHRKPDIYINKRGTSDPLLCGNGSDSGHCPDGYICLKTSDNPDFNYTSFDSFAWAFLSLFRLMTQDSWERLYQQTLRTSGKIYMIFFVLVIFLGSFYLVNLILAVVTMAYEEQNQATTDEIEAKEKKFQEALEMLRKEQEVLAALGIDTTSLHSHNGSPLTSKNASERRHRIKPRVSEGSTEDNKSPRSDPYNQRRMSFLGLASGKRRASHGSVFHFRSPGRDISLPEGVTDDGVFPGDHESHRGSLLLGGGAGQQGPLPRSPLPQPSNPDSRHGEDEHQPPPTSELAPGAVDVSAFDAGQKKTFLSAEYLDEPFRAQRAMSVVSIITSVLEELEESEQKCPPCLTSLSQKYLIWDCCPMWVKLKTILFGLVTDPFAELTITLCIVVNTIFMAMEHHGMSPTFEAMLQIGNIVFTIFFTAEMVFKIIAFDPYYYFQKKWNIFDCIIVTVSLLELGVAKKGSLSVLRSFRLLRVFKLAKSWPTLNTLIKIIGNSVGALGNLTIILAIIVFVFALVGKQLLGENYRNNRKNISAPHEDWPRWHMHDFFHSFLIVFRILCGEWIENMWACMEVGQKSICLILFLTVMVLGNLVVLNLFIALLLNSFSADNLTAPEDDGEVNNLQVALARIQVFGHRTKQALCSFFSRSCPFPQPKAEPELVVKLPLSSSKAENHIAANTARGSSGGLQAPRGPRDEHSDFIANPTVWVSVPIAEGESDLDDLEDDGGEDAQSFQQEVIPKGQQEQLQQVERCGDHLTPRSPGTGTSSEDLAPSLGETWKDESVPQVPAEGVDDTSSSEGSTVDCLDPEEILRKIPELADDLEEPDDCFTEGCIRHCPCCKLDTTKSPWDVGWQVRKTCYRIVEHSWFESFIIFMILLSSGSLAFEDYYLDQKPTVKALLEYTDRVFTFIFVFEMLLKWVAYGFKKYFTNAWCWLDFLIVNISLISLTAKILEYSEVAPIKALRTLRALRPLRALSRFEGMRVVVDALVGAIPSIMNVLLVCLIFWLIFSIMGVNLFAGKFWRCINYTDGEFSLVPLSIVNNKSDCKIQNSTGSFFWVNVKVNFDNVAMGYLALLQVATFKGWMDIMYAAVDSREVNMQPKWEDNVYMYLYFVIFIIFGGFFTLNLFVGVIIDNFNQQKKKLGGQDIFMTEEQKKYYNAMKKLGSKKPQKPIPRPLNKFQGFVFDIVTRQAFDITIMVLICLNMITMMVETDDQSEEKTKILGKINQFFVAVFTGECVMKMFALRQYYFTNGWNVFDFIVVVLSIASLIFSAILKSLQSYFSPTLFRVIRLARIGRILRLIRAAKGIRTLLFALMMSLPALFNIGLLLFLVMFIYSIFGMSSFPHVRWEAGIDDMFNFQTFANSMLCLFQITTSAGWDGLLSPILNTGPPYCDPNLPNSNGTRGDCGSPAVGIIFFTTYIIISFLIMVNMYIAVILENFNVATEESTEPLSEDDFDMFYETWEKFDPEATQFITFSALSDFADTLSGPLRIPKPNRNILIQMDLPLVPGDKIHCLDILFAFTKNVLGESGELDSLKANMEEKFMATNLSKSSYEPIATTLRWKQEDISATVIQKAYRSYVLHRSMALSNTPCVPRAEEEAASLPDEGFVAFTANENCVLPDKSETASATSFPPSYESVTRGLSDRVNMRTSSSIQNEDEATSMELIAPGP
- experiment: Inhibition of 20% inactivated human Nav1.8 expressed in CHO cells assessed as inhibition of TTX-resistant current by whole cell patch clamp method
pIC50: −log10 of the molar value.
quantity-name: pIC50

Data request: Consider the compound shown here: "COc1cc(C(F)(F)F)ccc1-c1ncnc2cc(S(=O)(=O)Nc3nccs3)ccc12" What is its recorded pIC50?
Data returned: < 4.52

###

- experiment: Clearance in dog at 0.5 mg/kg, iv by LC-MS/MS analysis
- Type: ADME, organism-based, Canis lupus familiaris
- experimental-parameters: in vivo
quantity-name: clearance (mL/min/kg)
Answers are plain numbers, in mL/min/kg.

Data request: Consider the compound shown here: "COc1cc(C(F)(F)F)ccc1-c1ncnc2cc(S(=O)(=O)Nc3nccs3)ccc12" What is its recorded clearance?
Data returned: 0.217

###

- experiment: Fraction unbound in rat plasma at 5 uM measured after 45 mins by LC-MS/MS analysis
- Assay type: ADME, cell-free
Assign fraction unbound at 0.75 h, 5 µM to each entry below.
One number for each entry.

Take a look at these entries with their results.
[
  {
    "smiles-string": "O=S(=O)(Nc1ncns1)c1ccc2c(-c3ccc(C(F)(F)F)cc3Br)cccc2c1",
    "experimental-result": 0.003
  },
  {
    "smiles-string": "COc1cc(C(F)(F)F)ccc1-c1n[nH]c(=O)c2cc(S(=O)(=O)Nc3nccs3)ccc12",
    "experimental-result": 0.013
  },
  {
    "smiles-string": "Cc1cc(C(F)(F)F)ccc1-c1cccc2cc(S(=O)(=O)Nc3ncns3)ccc12",
    "experimental-result": 0.001
  },
  {
    "smiles-string": "COc1cc(C(F)(F)F)ccc1-c1ncnc2cc(S(=O)(=O)Nc3nccs3)ccc12",
    "experimental-result": 0.016
  },
  {
    "smiles-string": "COc1cc(C(F)(F)F)ccc1-c1cccc2cc(S(=O)(=O)Nc3nccs3)ccc12",
    "experimental-result": 0.001
  }
]

Data request: Consider the compound shown here: "COc1cc(C(F)(F)F)ccc1-c1cccc2cc(S(=O)(=O)Nc3ncns3)ccc12" What is its recorded fraction unbound at 0.75 h, 5 µM?
Data returned: 0.001

###

- test-target: Sodium channel protein type 9 subunit alpha (Homo sapiens, UniProt Q15858)
- Sequence (Q15858 whole entry): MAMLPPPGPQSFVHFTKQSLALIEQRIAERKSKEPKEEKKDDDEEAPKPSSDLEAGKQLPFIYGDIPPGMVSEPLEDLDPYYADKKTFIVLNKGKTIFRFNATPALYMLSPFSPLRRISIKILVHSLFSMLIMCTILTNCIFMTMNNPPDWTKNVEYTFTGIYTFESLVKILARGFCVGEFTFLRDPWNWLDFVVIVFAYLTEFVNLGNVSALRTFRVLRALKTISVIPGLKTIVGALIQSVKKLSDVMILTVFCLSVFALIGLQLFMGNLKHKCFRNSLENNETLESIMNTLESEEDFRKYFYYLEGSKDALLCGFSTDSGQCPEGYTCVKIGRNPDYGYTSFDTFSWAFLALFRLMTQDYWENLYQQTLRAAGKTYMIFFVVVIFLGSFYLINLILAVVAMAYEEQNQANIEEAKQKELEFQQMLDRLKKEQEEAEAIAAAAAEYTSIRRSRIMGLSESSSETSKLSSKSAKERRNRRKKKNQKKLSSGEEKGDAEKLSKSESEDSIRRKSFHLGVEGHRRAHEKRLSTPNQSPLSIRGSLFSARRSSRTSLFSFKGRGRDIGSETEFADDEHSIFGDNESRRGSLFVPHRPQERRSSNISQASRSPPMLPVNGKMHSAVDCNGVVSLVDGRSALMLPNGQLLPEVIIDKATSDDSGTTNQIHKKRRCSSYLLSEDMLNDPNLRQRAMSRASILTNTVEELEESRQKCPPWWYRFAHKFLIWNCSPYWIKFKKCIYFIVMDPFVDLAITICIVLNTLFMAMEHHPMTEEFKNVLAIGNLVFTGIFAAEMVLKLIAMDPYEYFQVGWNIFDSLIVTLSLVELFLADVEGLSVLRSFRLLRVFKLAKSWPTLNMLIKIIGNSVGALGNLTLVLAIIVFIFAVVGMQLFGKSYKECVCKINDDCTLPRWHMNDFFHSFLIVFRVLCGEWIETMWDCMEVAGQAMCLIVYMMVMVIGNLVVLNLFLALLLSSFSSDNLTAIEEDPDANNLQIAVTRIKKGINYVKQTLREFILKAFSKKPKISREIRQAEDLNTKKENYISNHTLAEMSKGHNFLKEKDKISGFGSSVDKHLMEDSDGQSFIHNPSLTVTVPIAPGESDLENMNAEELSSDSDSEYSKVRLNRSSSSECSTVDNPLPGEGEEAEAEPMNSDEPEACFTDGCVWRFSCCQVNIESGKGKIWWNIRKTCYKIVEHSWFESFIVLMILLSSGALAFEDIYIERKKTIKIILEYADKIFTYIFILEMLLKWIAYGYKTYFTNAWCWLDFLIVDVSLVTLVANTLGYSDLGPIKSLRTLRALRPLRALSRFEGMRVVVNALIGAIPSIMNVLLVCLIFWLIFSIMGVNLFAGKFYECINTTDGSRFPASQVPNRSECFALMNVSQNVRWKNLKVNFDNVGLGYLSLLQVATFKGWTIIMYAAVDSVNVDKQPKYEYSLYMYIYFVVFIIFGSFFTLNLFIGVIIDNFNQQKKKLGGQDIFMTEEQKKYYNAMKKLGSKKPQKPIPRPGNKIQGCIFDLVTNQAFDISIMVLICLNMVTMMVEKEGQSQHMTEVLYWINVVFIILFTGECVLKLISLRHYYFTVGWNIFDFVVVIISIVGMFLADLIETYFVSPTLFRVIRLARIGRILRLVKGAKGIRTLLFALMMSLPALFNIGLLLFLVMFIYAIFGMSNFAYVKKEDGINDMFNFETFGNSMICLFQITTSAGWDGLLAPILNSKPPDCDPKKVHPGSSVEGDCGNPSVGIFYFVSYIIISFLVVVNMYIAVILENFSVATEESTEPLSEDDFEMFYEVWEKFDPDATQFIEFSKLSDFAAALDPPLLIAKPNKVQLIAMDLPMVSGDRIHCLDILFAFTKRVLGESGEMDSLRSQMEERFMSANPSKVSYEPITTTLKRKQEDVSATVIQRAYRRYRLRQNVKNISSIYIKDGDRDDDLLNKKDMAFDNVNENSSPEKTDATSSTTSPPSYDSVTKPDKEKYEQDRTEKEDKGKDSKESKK
- experiment: Inhibition of human Nav1.7 expressed in HEK293 cells assessed as inhibition of sodium current at holding potential of -60 mV measured for 3 to 5 mins by whole cell voltage clamp method
- Assay type: cell-based
quantity-name: pIC50
One number for each entry, as −log10 of the molar value.

Data request: Record lookup: for Sodium channel protein type 9 subunit alpha (Homo sapiens, UniProt Q15858), what pIC50 belongs to "COc1cc(C(F)(F)F)ccc1-c1ncnc2cc(S(=O)(=O)Nc3nccs3)ccc12" ?
Data returned: 8.05

###

- experiment: Apparent permeability in MDCK cells assessed as drug recovery
- Type: ADME, cell-based, Canis lupus familiaris
- experimental-parameters: dog, read-out: Drug recovery
quantity-name: recovery

[
  {
    "smiles-string": "Cc1cc(C(F)(F)F)ccc1-c1cccc2cc(S(=O)(=O)Nc3ncns3)ccc12",
    "quantity-name": "recovery",
    "experimental-result": "< 50%"
  }
]

Data request: Consider the molecule shown here: "O=S(=O)(Nc1ncns1)c1ccc2c(-c3ccc(C(F)(F)F)cc3Br)cccc2c1" What is its recorded recovery?
Data returned: < 50%

###

- test-target: Sodium channel protein type 5 subunit alpha (Homo sapiens, UniProt Q14524)
- experiment: Inhibition of human Nav1.5 expressed in HEK293 cells assessed as inhibition of sodium current at holding potential of -125 mV measured for 3 to 5 mins by whole cell voltage clamp method
- Format: cell-based
Assign IC50 to each entry below.

[
  {
    "smiles-string": "O=S(=O)(Nc1ncns1)c1ccc2c(-c3ccc(C(F)(F)F)cc3Br)cccc2c1",
    "IC50": "21 µM"
  },
  {
    "smiles-string": "COc1cc(C(F)(F)F)ccc1-c1cccc2cc(S(=O)(=O)Nc3nccs3)ccc12",
    "IC50": "21 µM"
  },
  {
    "smiles-string": "COc1cc(C(F)(F)F)ccc1-c1nccc2cc(S(=O)(=O)Nc3nccs3)cnc12",
    "IC50": "> 30 µM"
  },
  {
    "smiles-string": "Cn1nccc1-c1cc(C(F)(F)F)ccc1-c1cn(C)c2cc(S(=O)(=O)Nc3ncns3)ccc12",
    "IC50": "> 30 µM"
  },
  {
    "smiles-string": "COc1cc(C(F)(F)F)ccc1-c1ncnc2cc(S(=O)(=O)Nc3nccs3)ccc12",
    "IC50": "> 30 µM"
  },
  {
    "smiles-string": "COc1cc(C(F)(F)F)ccc1-c1cccc2cc(S(=O)(=O)Nc3ncccn3)ccc12",
    "IC50": "> 30 µM"
  },
  {
    "smiles-string": "COc1cc(C(F)(F)F)ccc1-c1cccc2cc(S(=O)(=O)Nc3ccncn3)ccc12",
    "IC50": "> 30 µM"
  },
  {
    "smiles-string": "O=S(=O)(Nc1ncns1)c1ccc2c(-c3ccc(C(F)(F)F)cc3C3=CCNCC3)cccc2c1",
    "IC50": "> 30 µM"
  },
  {
    "smiles-string": "N#Cc1cc(S(=O)(=O)Nc2ncns2)ccc1Oc1ccc(C(F)(F)F)cc1-c1cn[nH]c1",
    "IC50": "> 30 µM"
  },
  {
    "smiles-string": "COc1cc(C(F)(F)F)ccc1-c1cccc2cc(S(=O)(=O)Nc3cscn3)ccc12",
    "IC50": "21 µM"
  }
]

Turning now to a further compound:
Data request: Consider the compound shown here: "COc1cc(C(F)(F)F)ccc1-c1nccc2cc(S(=O)(=O)Nc3nccs3)ccc12" What is its recorded IC50?
Data returned: > 30 µM

###

- experiment: Apparent permeability in MDCK cells
- Type: ADME, cell-based, Canis lupus familiaris
- experimental-parameters: dog
Assign Papp to each entry below.
One number for each entry, in ×10⁻⁶ cm/s.

Take a look at these entries with their results.
[
  {
    "smiles-string": "COc1cc(C(F)(F)F)ccc1-c1cccc2cc(S(=O)(=O)Nc3cncs3)ccc12",
    "Papp (×10⁻⁶ cm/s)": 28
  },
  {
    "smiles-string": "COc1cc(C(F)(F)F)ccc1-c1cccc2cc(S(=O)(=O)Nc3ncns3)ccc12",
    "Papp (×10⁻⁶ cm/s)": 17
  },
  {
    "smiles-string": "COc1cc(C(F)(F)F)ccc1-c1n[nH]c(=O)c2cc(S(=O)(=O)Nc3nccs3)ccc12",
    "Papp (×10⁻⁶ cm/s)": 3.2
  },
  {
    "smiles-string": "COc1cc(C(F)(F)F)ccc1-c1nccc2cc(S(=O)(=O)Nc3nccs3)ccc12",
    "Papp (×10⁻⁶ cm/s)": 34
  },
  {
    "smiles-string": "Cn1nccc1-c1cc(C(F)(F)F)ccc1-c1cn(C)c2cc(S(=O)(=O)Nc3ncns3)ccc12",
    "Papp (×10⁻⁶ cm/s)": 1.3
  },
  {
    "smiles-string": "COc1cc(C(F)(F)F)ccc1-c1ncnc2cc(S(=O)(=O)Nc3nccs3)ccc12",
    "Papp (×10⁻⁶ cm/s)": 31
  }
]

Turning now to a further compound:
Data request: Consider the compound shown here: "COc1cc(C(F)(F)F)ccc1-c1cccc2cc(S(=O)(=O)Nc3nccs3)ccc12" What is its recorded Papp?
Data returned: 12
